- measurement-notes: Waters ACQUITY UPLC BEH C18, 100 × 2.1 mm, 1.7 µm, 40 °C, 0.3 to 0.4 mL/min, estimated dead time 0.63 min; A: water + 0.1% formic acid; B: methanol + 0.1% formic acid; gradient (min/%B) 0/0.5 0.1/0.5 10/80 10.1/99.5 12/99.5
- test-conditions: stereoisomer not certain
In this section we review reported LC retention time values for a set of compounds.
parameter: LC retention time (min)

* NC(CCC(=O)NC(Cc1ccccc1)C(=O)O)C(=O)O (centres undefined) | 3.04
* CS(=O)CCCCCCCCC(=O)O (centres undefined) | 4.43
* COCC=C1CN2C3CC45C(=Nc6c(OC)cc(OC)c(OC)c64)OCC3C1CC25 (centres undefined) | 3.82
* CC(C)=CCCC(C)(OC1OC(COC2OC(CO)C(O)C2O)C(O)C(O)C1O)C1CCC2(C)C1C(O)CC1C3(C)CCC(OC4OC(CO)C(O)C(O)C4OC4OC(CO)C(O)C(O)C4O)C(C)(C)C3CCC12C (centres undefined) | 6.01
